meta.source: patent US6686467B2

Readout label: melting point

Reference set, count: 3
{"columns": ["Chemical string", "Obs value"],
 "data": [
  ["COc1ccc(C(=O)Nc2cc(NC(=O)c3cccc(Br)c3)ccc2C)cc1OC", "136 to 138 °C"],
  ["Cc1ccc(NC(=O)CCCC2CCCCC2)cc1NC(=O)c1ccc(O)cc1", "159 to 160 °C"],
  ["Cc1ccc(NC(=O)c2ccc(C#N)cc2)cc1NC(=O)c1ccc(O)cc1", "297 to 299 °C"]
]}

Here's the next entry for you.
Query: I would be grateful if you could share the reported melting point for `Cc1ccc(NC(=O)c2cccc(N(C)C)c2)cc1NC(=O)c1ccccc1O` .
Reply: 234 to 238 °C

---

In this section we review reported melting point values for a set of molecules.

{"columns": ["Chemical string", "melting point"],
 "data": [
  ["COc1ccc(C(=O)Nc2cc(NC(=O)c3cccc(N)c3)ccc2C)cc1OC", "179 to 180 °C"],
  ["COc1ccc(C(=O)Nc2cc(NC(=O)c3ccc(O)cc3)ccc2C)cc1OC", "258 to 259 °C"],
  ["COc1ccc(C(=O)Nc2cc(NC(=O)c3cccc(NC(C)=O)c3)ccc2C)cc1OC", "187 to 188 °C"]
]}

Here's the next entry for you.
Query: I would be grateful if you could share the reported melting point for `COc1ccc(C(=O)Nc2cc(NC(=O)c3cccc(O)c3)ccc2C)cc1OC` .
Reply: 182 to 183 °C
